# pEC50 per record follows
tested_target: human ferroportin (Homo sapiens)
Construct: luciferase reporter (read with the Nano-Glo Luciferase Assay System); expressed in transfected cells; host or cells: CHO cells, stably transfected, expression induced with doxycycline
Sequence (Q9NP59 1-571): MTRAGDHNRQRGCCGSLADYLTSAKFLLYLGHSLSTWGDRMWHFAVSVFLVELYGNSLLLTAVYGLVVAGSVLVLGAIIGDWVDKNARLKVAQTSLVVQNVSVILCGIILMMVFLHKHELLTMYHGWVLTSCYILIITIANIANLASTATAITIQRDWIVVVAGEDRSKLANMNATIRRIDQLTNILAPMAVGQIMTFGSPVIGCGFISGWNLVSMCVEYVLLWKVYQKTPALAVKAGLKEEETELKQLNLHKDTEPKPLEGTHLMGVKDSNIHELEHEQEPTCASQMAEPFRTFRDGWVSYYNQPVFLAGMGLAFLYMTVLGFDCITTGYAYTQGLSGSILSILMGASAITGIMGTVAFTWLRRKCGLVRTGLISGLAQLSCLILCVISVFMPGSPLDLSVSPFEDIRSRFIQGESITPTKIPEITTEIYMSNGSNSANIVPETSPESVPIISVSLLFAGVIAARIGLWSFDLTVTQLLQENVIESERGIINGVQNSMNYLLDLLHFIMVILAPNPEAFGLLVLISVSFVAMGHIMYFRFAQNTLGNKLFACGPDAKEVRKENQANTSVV
protocol_details: Biological in-vitro ferroportin internalization assay (luciferase reporter)
Type: cell-based
measurement_context: average pEC50; stably-transfected CHO cell line expressing human ferroportin tagged to a luciferase reporter; 6 h incubation with test compound
Write no unit; give the number alone.

Study these solved cases before continuing.
{"columns": ["compound", "experimental_endpoint", "number"],
 "data": [
  ["CCn1cnc(-c2nc3c(c(N(C)CC(=O)NC(C)(C)C)n2)CCC3)c1", "pEC50", 6.8],
  ["CN(C)CCOc1ccnc(-c2nc3c(c(N(C)CC(=O)N4CCCC4)n2)CCC3)c1", "pEC50", 7.1],
  ["Cc1cnc(-c2nc3c(c(N(C)CC(=O)NC(C)(C)C)n2)CCC3)cc1C", "pEC50", 7.6]
]}

For the next question, use this compound.
Exercise: Kindly indicate its recorded pEC50. Item: `CN(CC(=O)NC(C)(C)C)c1nc(-c2cc(CCO)ccn2)nc2c1CCC2`
Key: 7.7

###

tested_target: human ferroportin (Homo sapiens, UniProt Q9NP59)
Construct: luciferase reporter (read with the Nano-Glo Luciferase Assay System); expressed in transfected cells; host or cells: CHO cells, stably transfected, expression induced with doxycycline
Sequence (Q9NP59 1-571): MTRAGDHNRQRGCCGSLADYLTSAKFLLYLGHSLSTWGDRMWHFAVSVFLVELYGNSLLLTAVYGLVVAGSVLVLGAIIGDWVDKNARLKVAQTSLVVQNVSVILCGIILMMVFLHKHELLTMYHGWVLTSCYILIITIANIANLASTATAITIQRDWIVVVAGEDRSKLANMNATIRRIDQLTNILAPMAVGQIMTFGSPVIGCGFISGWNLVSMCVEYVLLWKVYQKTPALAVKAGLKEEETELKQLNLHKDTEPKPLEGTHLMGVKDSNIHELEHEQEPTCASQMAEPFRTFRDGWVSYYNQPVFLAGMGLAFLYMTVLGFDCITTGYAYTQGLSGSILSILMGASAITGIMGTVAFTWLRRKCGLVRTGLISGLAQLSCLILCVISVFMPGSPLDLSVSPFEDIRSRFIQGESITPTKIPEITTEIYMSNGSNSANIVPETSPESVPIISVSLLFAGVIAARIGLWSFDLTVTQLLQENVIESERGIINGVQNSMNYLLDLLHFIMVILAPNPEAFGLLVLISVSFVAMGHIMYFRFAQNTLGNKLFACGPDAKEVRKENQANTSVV
protocol_details: Biological in-vitro ferroportin internalization assay (luciferase reporter)
Type: cell-based
measurement_context: average pEC50; stably-transfected CHO cell line expressing human ferroportin tagged to a luciferase reporter; 6 h incubation with test compound
experimental_endpoint: pEC50
Write no unit; give the number alone.

{"columns": ["compound", "pEC50"],
 "data": [
  ["CN(CC(=O)N1CCOCC1)c1nc(-c2ccccn2)nc2c1CCC2", 6.8]
]}

Exercise: Report measured pEC50 on human ferroportin (Homo sapiens, UniProt Q9NP59); entry: `C[C@H](CN(C)C)Oc1ccnc(-c2nc3c(c(N(C)CC(=O)NC(C)(C)C)n2)CCC3)c1`
Key: 7.7

Exercise: Report measured pEC50 on human ferroportin (Homo sapiens, UniProt Q9NP59); entry: `CN(CC(=O)NC(C)(C)C)c1nc(-c2cc3c(cn2)OCO3)nc2c1CCC2`
Key: 7.1

Exercise: Report measured pEC50 on human ferroportin (Homo sapiens, UniProt Q9NP59); entry: `CN(CC(=O)NC(C)(C)C)c1nc(-c2cc(OCC(C)(C)O)ccn2)nc2c1CCC2=O`
Key: 6.4

Exercise: Report measured pEC50 on human ferroportin (Homo sapiens, UniProt Q9NP59); entry: `C[C@H](C(=O)Nc1cccc(F)c1)N(C)c1nc(-c2cn(C)cn2)nc2c1CCC2`
Key: 8.2

Exercise: Report measured pEC50 on human ferroportin (Homo sapiens, UniProt Q9NP59); entry: C[C@@H]1OC[C@@H]1Oc1ccnc(-c2nc3c(c(N(C)CC(=O)NC(C)(C)C)n2)CCC3)c1 (racemic)
Key: 7.8

Exercise: Report measured pEC50 on human ferroportin (Homo sapiens, UniProt Q9NP59); entry: `CN(CC(=O)Nc1cncc(OC(F)(F)F)c1)c1nc(-c2cc3ccccc3cn2)nc2c1CCC2`
Key: 6.6

Exercise: Report measured pEC50 on human ferroportin (Homo sapiens, UniProt Q9NP59); entry: `COc1ccc(NC(=O)CN(C)c2nc(-c3cc(OCCO)ccn3)nc3c2C(C)(C)CC3)cn1`
Key: 8.3
